tgt: RSV postfusion F (postF, F deltaFP) (Respiratory syncytial virus)
test: BLI, IgG on sensor, 100 nM antigen
quantity: pKd
Give bare numbers, as −log10 of the molar value.

Some solved cases for reference:
ADI-41346 (antibody, V domains shown) VH: QVQLVQSGPEVKKPGESLKISCTLSASGLTTYWIGWVRQMPAKGLEWMGIIFPGDSDTRYSPSFQGQVTISADKSTNTAYLQWSGLKASDTAIYYCATLQTPVTGLDQWGQGTLVTVSS VL: NFMLTQPHSVSESPGKTVTISCTRSSGNIARSYVQWYQQRPGSAPTTVIHEDDQRPSGVPDRFSGSIDTSSNSASLTISGLKTEDEADYYCQSYDPSNYVFGTGTKVTVL    9.57
ADI-41250 (antibody, V domains shown) VH: QVQLQQWGAGLLKPSETLSLTCAVSGESLTGYFWSWIRQPPGKGLEWIGEVSHSGSTNYNPSLKSRVTMSVDTSKTQFSLKLNSVTAADTAVYYCARGYDYWSGTARYFDYWGQGILVTVSS VL: QPVLTQPASVSGSPGQSITISCTGTSSDVGGYNYVSWYQQHPGKAPKLMIYDVSNRPSGVSSRFSGSKSGNTASLTISGLQAEDEGDYYCSSYRSSTTSRVFGGGTKVTVL    9.30

// switching to the query binder
# input binder: ADI-41303 (antibody, V domains shown) VH: QVQLVQSGGGLVRPGGSLRVSCAASGFIFNNYALTWVRQAPGKGLEWVSAISGSGSSTYYADSVKGRFTISRENSNNRLYLQLSGLRAEDTAVYFCARVRGLVWFEGRIDPYPNVFDYWGQGTLVTVSS VL: DIVLTQSPGTLSLSPGERATLSCRASQSVSNDYLAWYQQKPGQAPRLLIYDASSRAIGIPDRFSGSGSGTDFTLIISRLEPEDFAVYYCHHPGKFGQGTKVEIK ; wanted: its pKd
9.03

Data credit: patent US20260258115A1
